Cited source for all entries: the supplement of paper PMC10567573

B1: TAF7L (parent)
chain: PDVENEVKRLLRSDAEAVSTRWEV

- Variants of: B1
- protocol.text: protein stability index of a GFP-peptide fusion (GPS, HEK-293T) (PSI 1-6); higher = more stable;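 note: lentivirally expressed fusions sorted by FACS into six bins by GFP to DsRed ratio, PSI derived from sequencing read proportions per bin multiplied by bin number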
- setup.conditions: c terminus: a fixed tail appended
property.measured: protein stability index
The answer should be a number; do not append a unit.

Examples with answers:
residue.change | protein stability index
E23T | 2.96
V7M | 3.47

Request: I am curious: what protein stability index value has been reported for E16R ?
Response: 2.12

Request: I am curious: what protein stability index value has been reported for T20M ?
Response: 2.26

Request: I am curious: what protein stability index value has been reported for P1R ?
Response: 2.36

Request: I am curious: what protein stability index value has been reported for E16M ?
Response: 1.71

Request: I am curious: what protein stability index value has been reported for V7W ?
Response: 3.13

Request: I am curious: what protein stability index value has been reported for L10H ?
Response: 3.82

Request: I am curious: what protein stability index value has been reported for L11Q ?
Response: 4.35

Request: I am curious: what protein stability index value has been reported for E23R ?
Response: 2.75
